Origin of the recorded values: ChEMBL document CHEMBL1152677

Test system: K562
PROTOCOL SUMMARY: Cell cycle arrest in human K562 cells assessed as accumulation at G0/G1 phase at 10 uL after overnight incubation by propidium iodide staining-based flow cytometry
Type: functional
The threshold is inclusive: Activity of exactly 10% counts as condition met; values below receive condition not met.

Answer whether Activity of `COc1ccc(/C=C\c2cc(OC)c(OC)c(OC)c2)cc1O` is greater than or equal to 10%. condition met

Answer whether Activity of `COc1ccc(/C=C(/C(=O)c2cc(OC)c(OC)c(OC)c2)c2ccccc2O)cc1O` is greater than or equal to 10%. condition not met

Answer whether Activity of `COc1ccc(/C=C(\C)C(=O)c2cc(OC)c(OC)c(OC)c2)cc1O` is greater than or equal to 10%. condition met

Answer whether Activity of `COc1ccc(/C=C(/C(=O)c2cc(OC)c(OC)c(OC)c2)c2ccccc2O)cc1F` is greater than or equal to 10%. condition met

Answer whether Activity of `COc1ccc(C(=Cc2ccc(OC)c(O)c2)C(=O)c2cc(OC)c(OC)c(OC)c2)cc1` is greater than or equal to 10%. condition met

* * *

Tested on: P388
PROTOCOL SUMMARY: Antiproliferative activity against mouse P388 cells after 5 days by MTT assay
Format: functional, cell-based
SETUP CONDITIONS: P388, 120 h
Task for the reader: assign each of the following molecules its reported log10 of IC50.
Remember, log10 of IC50, in nM.

I would be grateful if you could share the reported log10 of IC50 for `COc1ccc(C(=Cc2ccc(OC)c(O)c2)C(=O)c2cc(OC)c(OC)c(OC)c2)cc1` . 1.30

I would be grateful if you could share the reported log10 of IC50 for `COc1ccc(/C=C(/C(=O)c2cc(OC)c(OC)c(OC)c2)c2ccccc2O)cc1O` . 1.45

I would be grateful if you could share the reported log10 of IC50 for `COc1ccc(/C=C(/C(=O)c2cc(OC)c(OC)c(OC)c2)c2ccccc2O)cc1F` . 2.72

I would be grateful if you could share the reported log10 of IC50 for `COc1ccc(/C=C(\C)C(=O)c2cc(OC)c(OC)c(OC)c2)cc1O` . 1.41

I would be grateful if you could share the reported log10 of IC50 for COc1ccc(/C=C\c2cc(OC)c(OC)c(OC)c2)cc1O [COMBRETASTATIN A4] . 0.49
